These measurements were taken from patent US20250206732A1.

Field: Dmax. Provide a value for each of the molecules that follow.
molecular target: AsPC-1 HiBiT-KRASG12D (Homo sapiens, UniProt P01116, G12D); construct: insert the HiBiT tag onto the N-terminus of one or more of the endogenous KRAS alleles; endogenous in cells; host or cells: AsPC-1 (ATCC CRL-1682), CRISPR-Cas9 knock-in clone, one tagged allele; experiment: HiBiT degradation assay (G12D), AsPC-1 HiBiT-KRASG12D cells; format: cell-based; details: ASPC1, AsPC-1 HiBiT-KRASG12D cells, 24 hours treatment, maximum degradation observed
Sequence (P01116 1-188 isoform P01116-2 G12D): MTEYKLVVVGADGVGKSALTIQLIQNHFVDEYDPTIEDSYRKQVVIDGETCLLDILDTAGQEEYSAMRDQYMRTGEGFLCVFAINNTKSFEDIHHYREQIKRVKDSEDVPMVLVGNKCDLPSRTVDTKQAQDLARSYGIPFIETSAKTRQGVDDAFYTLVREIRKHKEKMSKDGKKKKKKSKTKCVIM

These solved cases illustrate the format of a correct answer.
CCc1cccc2cc(O)cc(-c3ncc4c(N5CCCCCC5)nc(OC[C@]56CCCN5[C@H](COc5cc([C@H](C(=O)N7C[C@H](O)C[C@H]7C(=O)N[C@@H](C)c7ccc(-c8scnc8C)cc7)C(C)C)on5)CC6)nc4c3F)c12
80 to 100%
C#Cc1c(F)ccc2cc(O)cc(-c3ncc4c(N5CC6CCC(C5)N6)nc(OCCN5CCC(COc6cc([C@H](C(=O)N7C[C@H](O)C[C@H]7C(=O)N[C@@H](C)c7ccc(-c8ccnn8C)cc7)C(C)C)on6)CC5)nc4c3F)c12 (relative stereo)
80 to 100%
CCc1cccc2cc(O)cc(-c3ncc4c(N5CC6CCC(C5)N6)nc(OC[C@]56CCCN5[C@@H](COC(=O)N5CCN(c7cc([C@@H](C(=O)N8C[C@H](O)C[C@H]8C(=O)N[C@@H](C)c8ccc(-c9scnc9C)cc8)C(C)C)on7)CC5)CC6)nc4c3F)c12
< 20%

Consider the record given below.
Value lookup for Dmax; key = "CCc1cccc2cccc(-c3ncc4c(N5CC6CCC(C5)N6)nc(OC[C@]56CCCN5[C@@H](COC(=O)N5CCN(c7cc([C@H](C(=O)N8C[C@H](O)C[C@H]8C(=O)N[C@@H](C)c8ccc(-c9scnc9C)cc8)C(C)C)on7)CC5)CC6)nc4c3F)c12"
80 to 100%
